Target: ALK (Homo sapiens)
Sequence (Q9UM73 with tags, fused parts or gaps): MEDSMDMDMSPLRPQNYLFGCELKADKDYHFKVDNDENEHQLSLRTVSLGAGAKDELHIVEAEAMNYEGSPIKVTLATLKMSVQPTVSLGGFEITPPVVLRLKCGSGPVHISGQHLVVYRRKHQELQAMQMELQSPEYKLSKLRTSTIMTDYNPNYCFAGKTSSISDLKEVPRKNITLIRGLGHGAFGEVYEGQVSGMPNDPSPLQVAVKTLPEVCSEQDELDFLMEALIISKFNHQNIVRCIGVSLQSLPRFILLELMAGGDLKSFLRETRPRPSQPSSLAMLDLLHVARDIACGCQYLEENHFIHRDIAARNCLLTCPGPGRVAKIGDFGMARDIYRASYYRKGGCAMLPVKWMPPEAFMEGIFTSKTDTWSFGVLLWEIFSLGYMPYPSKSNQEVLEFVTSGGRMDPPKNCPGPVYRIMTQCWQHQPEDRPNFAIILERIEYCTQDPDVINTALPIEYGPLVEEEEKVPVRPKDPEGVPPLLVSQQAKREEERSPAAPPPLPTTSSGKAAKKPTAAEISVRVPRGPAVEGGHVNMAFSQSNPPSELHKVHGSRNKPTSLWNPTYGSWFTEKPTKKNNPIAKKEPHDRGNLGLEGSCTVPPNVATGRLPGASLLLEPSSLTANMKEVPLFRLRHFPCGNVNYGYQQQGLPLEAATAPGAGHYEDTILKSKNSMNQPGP
Assay: ALK cellular assay
Assay type: cell-based
Details: 75% human plasma; read-out: ALK cellular IC50 in 75% human plasma
measured_property: IC50 (nM)
Value expressed in nM; do not type the unit.

Kindly note: ALK (Homo sapiens), COc1c(Nc2ncc(Cl)c(N[C@H]3[C@@H](C(N)=O)[C@@H]4C=C[C@H]3C4)n2)ccc2c1CC[C@@H](N1CCOCC1)CC2 [CEP-28122] , IC50 value reported: 300

* * *

Experiment: Equilibrium solubility
Type: physicochemical
Conditions: pH 2, simulated gastric fluid, thermodynamic from solid; read-out: Equilibrium solubility at pH 2
measured_property: solubility thermodynamic

{"columns": ["smiles_representation", "val"],
 "data": [
  ["CNC(=O)c1ccccc1Nc1nc(Nc2ccc3c(c2OC)CCC[C@H](N2CCN(CCO)CC2)C3)ncc1Cl", "> 1000 µg/mL"]
]}

solubility thermodynamic for `COc1c(Nc2ncc(Cl)c(N[C@H]3[C@@H](C(N)=O)[C@@H]4C=C[C@H]3C4)n2)ccc2c1CC[C@@H](N1CCOCC1)CC2` is > 3000 µg/mL

* * *

Assay: Rat bioavailability
Conditions: in vivo, po
measured_property: bioavailability

Per the records, this compound ( CNC(=O)c1ccccc1Nc1nc(Nc2ccc3c(c2OC)CCC[C@H](N2CCN(CCO)CC2)C3)ncc1Cl [CEP-37440] ) has bioavailability equal to > 42%

* * *

Biological target: CYP 1A2 (Homo sapiens, UniProt P05177)
Sequence (P05177 whole entry): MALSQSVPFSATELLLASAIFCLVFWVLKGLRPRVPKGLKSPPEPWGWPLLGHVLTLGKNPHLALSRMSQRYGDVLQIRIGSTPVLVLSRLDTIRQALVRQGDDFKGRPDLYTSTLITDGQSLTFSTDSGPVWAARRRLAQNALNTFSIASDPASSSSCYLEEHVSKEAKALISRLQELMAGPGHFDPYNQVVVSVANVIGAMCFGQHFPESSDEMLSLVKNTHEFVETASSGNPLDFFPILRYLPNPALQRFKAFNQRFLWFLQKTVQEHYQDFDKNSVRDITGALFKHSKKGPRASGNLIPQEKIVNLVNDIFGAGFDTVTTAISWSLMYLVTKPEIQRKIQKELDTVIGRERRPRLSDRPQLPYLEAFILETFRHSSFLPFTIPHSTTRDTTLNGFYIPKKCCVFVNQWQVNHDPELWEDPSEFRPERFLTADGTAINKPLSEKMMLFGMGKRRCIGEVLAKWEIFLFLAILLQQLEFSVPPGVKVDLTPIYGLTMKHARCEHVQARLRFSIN
measured_property: IC50

{"columns": ["compound", "IC50"],
 "data": [
  ["CNC(=O)c1ccccc1Nc1nc(Nc2ccc3c(c2OC)CCC[C@H](N2CCN(CCO)CC2)C3)ncc1Cl [CEP-37440]", "> 30 µM"]
]}

The compound listed as COc1c(Nc2ncc(Cl)c(N[C@H]3[C@@H](C(N)=O)[C@@H]4C=C[C@H]3C4)n2)ccc2c1CC[C@@H](N1CCOCC1)CC2 [CEP-28122] shows IC50 equal to > 30 µM

* * *

Assay: in vivo
Conditions: both, rat, po
measured_property: NOAEL at 4 weeks

Item: CNC(=O)c1ccccc1Nc1nc(Nc2ccc3c(c2OC)CCC[C@H](N2CCN(CCO)CC2)C3)ncc1Cl [CEP-37440] | NOAEL at 4 weeks: 10 mg/kg/day

* * *

Target chain: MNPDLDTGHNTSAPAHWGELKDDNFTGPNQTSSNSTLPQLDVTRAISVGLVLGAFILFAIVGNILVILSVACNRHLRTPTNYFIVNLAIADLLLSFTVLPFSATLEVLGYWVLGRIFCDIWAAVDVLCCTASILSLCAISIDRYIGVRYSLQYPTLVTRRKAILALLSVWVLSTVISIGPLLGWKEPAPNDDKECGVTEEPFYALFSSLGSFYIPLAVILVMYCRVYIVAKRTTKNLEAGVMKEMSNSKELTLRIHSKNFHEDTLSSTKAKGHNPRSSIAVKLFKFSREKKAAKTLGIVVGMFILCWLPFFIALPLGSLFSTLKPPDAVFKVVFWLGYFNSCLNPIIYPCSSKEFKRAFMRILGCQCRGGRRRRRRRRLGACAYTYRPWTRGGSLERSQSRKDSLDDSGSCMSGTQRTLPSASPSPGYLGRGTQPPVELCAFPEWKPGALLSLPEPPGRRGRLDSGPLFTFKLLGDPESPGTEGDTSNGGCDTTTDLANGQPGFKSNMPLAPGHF
measured_property: pKi
Schema: pKi number; meaning minus log10 of the concentration expressed in molar units.

molecule COc1c(Nc2ncc(Cl)c(N[C@H]3[C@@H](C(N)=O)[C@@H]4C=C[C@H]3C4)n2)ccc2c1CC[C@@H](N1CCOCC1)CC2 [CEP-28122] , pKi observed: 5.66
